These entries and their values trace back to ChEMBL document CHEMBL1152606.

Target: UniProt Q9WV60
Sequence (Q9WV60 whole entry, looked up): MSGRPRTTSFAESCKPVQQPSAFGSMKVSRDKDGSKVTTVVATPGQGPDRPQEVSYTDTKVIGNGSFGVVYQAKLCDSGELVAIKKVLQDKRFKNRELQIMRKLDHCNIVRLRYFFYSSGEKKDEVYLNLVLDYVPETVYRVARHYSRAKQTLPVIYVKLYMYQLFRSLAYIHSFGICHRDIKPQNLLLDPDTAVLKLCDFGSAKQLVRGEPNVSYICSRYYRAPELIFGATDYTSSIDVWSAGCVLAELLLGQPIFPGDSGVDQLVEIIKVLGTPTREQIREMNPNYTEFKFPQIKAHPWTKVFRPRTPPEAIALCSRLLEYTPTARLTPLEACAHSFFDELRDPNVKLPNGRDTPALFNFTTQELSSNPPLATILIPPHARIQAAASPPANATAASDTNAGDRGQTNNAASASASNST
Assay: Inhibition of GSK-3-beta-mediated tau phosphorylation in mouse granule cerebellar neurons cells after 16 hrs by Western blot
The source made the active and inactive calls. No cut-off for these calls is given here.
Recorded Endpoint: Activity

>  <Smiles Str>
O=C(CCl)c1csc(C(=O)CCl)c1

>  <Activity>
Active

$$$$
>  <Smiles Str>
O=C(CCl)c1c(Br)sc(Cl)c1Cl

>  <Activity>
Active

$$$$
>  <Smiles Str>
O=C(CCl)c1cscc1Cl

>  <Activity>
Active

$$$$
>  <Smiles Str>
O=C(CCl)c1ccc(Br)s1

>  <Activity>
Active

$$$$

Reported Activity for O=C(CCl)c1ccc(Cl)s1 was Active

* * *

Species: Rattus norvegicus
Experiment: Inhibition of rat CAM2 at 10 uM by liquid scintillation counting in presence of [33gammaP]ATP
Give measured inhibition for each item. Keep answers brief.

>  <Smiles Str>
O=C(CCl)c1ccc(Br)s1

>  <inhibition>
16%

$$$$
>  <Smiles Str>
O=C(CCl)c1cc(Cl)sc1Cl

>  <inhibition>
10%

$$$$
>  <Smiles Str>
O=C(CCl)c1csc(C(=O)CCl)c1

>  <inhibition>
21%

$$$$

For each entry beneath this line, provide reported inhibition.
1. O=C(CCl)c1cc(Br)c(Br)s1
2. O=C(CBr)c1scc(Br)c1Br
3. O=C(CCl)c1c(Br)sc(Cl)c1Cl
4. Cc1sc(C(=O)CCl)cc1C(=O)CCl

["< 10%", "< 10%", "< 10%", "< 10%"]

Each molecule below has a reported value. Please supply its inhibition.
1. CC(=O)c1csc(C(=O)CCl)c1
2. O=C(CBr)c1cc(Br)c(Br)s1

1: < 10%; 2: < 10%

Hi! Can you tell me inhibition for each of these molecules?
1. O=C(CCl)c1ccc(Cl)s1
2. O=C(CCl)c1scc(Br)c1Br
3. O=C(CCl)c1cscc1Cl

1. < 10%
2. < 10%
3. < 10%

* * *

Target: D(2) dopamine receptor (Homo sapiens)
Assay: Displacement of [3H]spiperone from human recombinant dopamine D2 receptor expressed in CHO cells at 10 uM
Format: cell-based
Recorded Endpoint: inhibition

>  <Smiles Str>
O=C(CCl)c1ccc(Br)s1

>  <inhibition>
< 10%

$$$$
>  <Smiles Str>
O=C(CCl)c1csc(C(=O)CCl)c1

>  <inhibition>
< 10%

$$$$
>  <Smiles Str>
O=C(CCl)c1ccc(Cl)s1

>  <inhibition>
< 10%

$$$$
>  <Smiles Str>
O=C(CCl)c1cc(Br)c(Br)s1

>  <inhibition>
< 10%

$$$$
>  <Smiles Str>
O=C(CCl)c1cc(Cl)sc1Cl

>  <inhibition>
< 10%

$$$$
>  <Smiles Str>
O=C(CBr)c1cc(Br)c(Br)s1

>  <inhibition>
< 10%

$$$$
>  <Smiles Str>
O=C(CCl)c1c(Br)sc(Cl)c1Cl

>  <inhibition>
31%

$$$$
>  <Smiles Str>
O=C(CBr)c1scc(Br)c1Br

>  <inhibition>
< 10%

$$$$
>  <Smiles Str>
CC(=O)c1csc(C(=O)CCl)c1

>  <inhibition>
< 10%

$$$$
>  <Smiles Str>
Cc1sc(C(=O)CCl)cc1C(=O)CCl

>  <inhibition>
< 10%

$$$$

Fill in inhibition for each of the 2 molecules listed.
1. O=C(CCl)c1scc(Br)c1Br
2. O=C(CCl)c1cscc1Cl

< 10%
13%
